These data points were gathered from patent US20060154243A1.

# Tested on: serum London
# Assay type: binding, human
Assign Binding of serum London to linear peptides of Orf14 of SARS-CoV TOR2 to each entry below.

EAEAAVKPLLAPHHV
0.6
IQLLAAVGEILLLEW
0.4
REAEAAVKPLLAPHH
0.4
AAVGEILLLEWLAEV
0.6
AVGEILLLEWLAEVV
0.6
LAAVGEILLLEWLAE
0.6
LLLEWLAEVVKLPSR
0.6
HHVVAVIQEIQLLAA
0.4
STQREAEAAVKPLLA
0.4
HVVAVIQEIQLLAAV
0.4

# per-item lookup of Binding of serum London to linear peptides of Orf14 of SARS-CoV TOR2; items listed below
1. GEILLLEWLAEVVKL
2. TQREAEAAVKPLLAP
3. KPLLAPHHVVAVIQE

1: 0.6; 2: 0.4; 3: 0.4

----------
# Test system: serum 37 (individual 37)
# Type: binding, human
So I've got a bunch of sequences here, and I need their Binding of serum 37 to linear peptides of Orf14 of SARS-CoV TOR2 values.

// below: answered sequences
VGEILLLEWLAEVVK
0.6
YNFLKEQHCQKASTQ
0.6
AAVKPLLAPHHVVAV
0.9
APHHVVAVIQEIQLL
0.5
LAPHHVVAVIQEIQL
0.5

State recorded Binding of serum 37 to linear peptides of Orf14 of SARS-CoV TOR2 for all listed sequences.
1. PHHVVAVIQEIQLLA
2. LLEWLAEVVKLPSRY

1: 0.5; 2: 0.5

----------
# Tested on: control serum LUMC (pooled serum of ten healthy hospital workers)
# Format: binding, human
// label = t if Control serum LUMC linear peptides is not less than 0.5, otherwise f

These recorded examples may help you get a feel for the data.
AVIQEIQLLAAVGEI
t
AAVGEILLLEWLAEV
t
MLIIFWFSLEIQDLE
t

Confirm if Control serum LUMC linear peptides reported for the sequence ASTQREAEAAVKPLL is 0.5 or above.
f

Could you verify whether the entry EWLAEVVKLPSRYCC shows Control serum LUMC linear peptides of no less than 0.5?
t

Hi team, for AVGEILLLEWLAEVV , is the recorded Control serum LUMC linear peptides at or above 0.5?
t

Determine whether measured Control serum LUMC linear peptides meets or exceeds 0.5 for AFLLFLVLIMLIIFW
f

Quick check, Control serum LUMC linear peptides >= 0.5? LLAAVGEILLLEWLA
t

State whether the measured Control serum LUMC linear peptides reaches 0.5, counting equality as reaching it, for PPCYNFLKEQHCQKA
f

Item KPLLAPHHVVAVIQE with Control serum LUMC linear peptides of 0.5 or above?
t

----------
# Test system: serum 62 (individual 62)
# Type: binding, human
Observable: Binding of serum 62 to linear peptides of Orf14 of SARS-CoV TOR2
Give bare numbers.

AAVKPLLAPHHVVAV
0.9
AAVGEILLLEWLAEV
0.6
EIQLLAAVGEILLLE
0.4
TQREAEAAVKPLLAP
0.3
VAVIQEIQLLAAVGE
0.3
QEIQLLAAVGEILLL
0.4

Could you report Binding of serum 62 to linear peptides of Orf14 of SARS-CoV TOR2 for every entry in the following list?
1. EAEAAVKPLLAPHHV
2. HHVVAVIQEIQLLAA
3. EAAVKPLLAPHHVVA
4. QHCQKASTQREAEAA
5. AVKPLLAPHHVVAVI
6. EILLLEWLAEVVKLP
7. PPCYNFLKEQHCQKA

1: 0.4; 2: 0.3; 3: 0.6; 4: 0.4; 5: 0.5; 6: 0.5; 7: 0.2

For each listed entry, give its Binding of serum 62 to linear peptides of Orf14 of SARS-CoV TOR2.
1. EWLAEVVKLPSRYCC
2. LLEWLAEVVKLPSRY
3. ASTQREAEAAVKPLL
4. HCQKASTQREAEAAV
5. QLLAAVGEILLLEWL

0.7
0.4
0.4
0.7
0.4
